meta.source: the RNAGym collection of RNA variant scans (doi:10.7554/elife.90254)

B1: LINE1-mini (parent)
chain: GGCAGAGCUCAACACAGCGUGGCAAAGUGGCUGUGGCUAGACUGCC

variants of: B1; assay: self-cleavage, relative activity (ratio to wild type); higher = more cleavage; in vitro, sequencing; the parent is a self-cleaving ribozyme
Class key for self-cleavage values: b0 (below 0.08), b1 (0.08 to below 0.2), b2 (0.2 or more)

Solved entries:
Challenge: Band assignment needed for G29C G30U please.
Response given: b2

Challenge: Band assignment needed for A4C C15A please.
Response given: b1

Challenge: Band assignment needed for A25U C46G please.
Response given: b2

Next:
Challenge: Band assignment needed for U38A A41G please.
Response given: b1

Challenge: Band assignment needed for U20G G44A please.
Response given: b2

Challenge: Band assignment needed for G22C U32C please.
Response given: b1

Challenge: Band assignment needed for G1U A14G please.
Response given: b1

Challenge: Band assignment needed for G7U A26U please.
Response given: b2

Challenge: Band assignment needed for A26C G40C please.
Response given: b0

Challenge: Band assignment needed for A12U G33C please.
Response given: b0

Challenge: Band assignment needed for U20C A24G please.
Response given: b2

Challenge: Band assignment needed for C3A C42A please.
Response given: b2

Challenge: Band assignment needed for G27C G35A please.
Response given: b1

Challenge: Band assignment needed for G27C C37U please.
Response given: b0
